- protocol: Bioavailability in mice after […] dosage
- Assay type: ADME, organism-based
- run.parameters: mouse, in vivo
property: bioavailability (%)

> print(dat)
                                   compound  measured.result
1  O=C(O)CC(c1ccc2c(c1)OCO2)n1ccc2cc(OCCc3ccc4c(n3)NCCC4)ccc21 (stereo unspecified)               73

* * *

# reported IC50; entries follow
- system.under.test: Integrin alpha-V/beta-3 (Homo sapiens, UniProt P05106+P06756)
- Sequence (P05106 27-788 limits assumed): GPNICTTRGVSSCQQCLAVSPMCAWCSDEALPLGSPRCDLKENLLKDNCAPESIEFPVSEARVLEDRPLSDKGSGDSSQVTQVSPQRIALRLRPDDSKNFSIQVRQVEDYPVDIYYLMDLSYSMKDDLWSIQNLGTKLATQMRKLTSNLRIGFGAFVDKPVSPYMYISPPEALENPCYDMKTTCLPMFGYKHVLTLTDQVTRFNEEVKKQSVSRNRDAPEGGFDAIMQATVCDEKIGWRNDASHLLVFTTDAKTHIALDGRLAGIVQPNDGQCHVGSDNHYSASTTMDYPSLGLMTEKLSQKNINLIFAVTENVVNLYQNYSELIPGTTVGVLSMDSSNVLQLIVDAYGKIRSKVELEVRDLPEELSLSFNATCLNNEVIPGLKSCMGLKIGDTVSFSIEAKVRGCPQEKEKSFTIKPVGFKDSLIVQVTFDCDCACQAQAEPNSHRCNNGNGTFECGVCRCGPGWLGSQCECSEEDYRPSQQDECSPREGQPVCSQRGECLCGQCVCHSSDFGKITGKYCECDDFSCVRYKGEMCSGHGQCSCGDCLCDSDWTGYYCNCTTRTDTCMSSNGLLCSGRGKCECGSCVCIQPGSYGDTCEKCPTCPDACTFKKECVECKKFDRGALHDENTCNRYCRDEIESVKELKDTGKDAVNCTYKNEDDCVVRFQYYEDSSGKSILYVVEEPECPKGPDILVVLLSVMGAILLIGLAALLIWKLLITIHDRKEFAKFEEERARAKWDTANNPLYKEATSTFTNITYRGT
- Sequence (P06756 31-889 limits assumed): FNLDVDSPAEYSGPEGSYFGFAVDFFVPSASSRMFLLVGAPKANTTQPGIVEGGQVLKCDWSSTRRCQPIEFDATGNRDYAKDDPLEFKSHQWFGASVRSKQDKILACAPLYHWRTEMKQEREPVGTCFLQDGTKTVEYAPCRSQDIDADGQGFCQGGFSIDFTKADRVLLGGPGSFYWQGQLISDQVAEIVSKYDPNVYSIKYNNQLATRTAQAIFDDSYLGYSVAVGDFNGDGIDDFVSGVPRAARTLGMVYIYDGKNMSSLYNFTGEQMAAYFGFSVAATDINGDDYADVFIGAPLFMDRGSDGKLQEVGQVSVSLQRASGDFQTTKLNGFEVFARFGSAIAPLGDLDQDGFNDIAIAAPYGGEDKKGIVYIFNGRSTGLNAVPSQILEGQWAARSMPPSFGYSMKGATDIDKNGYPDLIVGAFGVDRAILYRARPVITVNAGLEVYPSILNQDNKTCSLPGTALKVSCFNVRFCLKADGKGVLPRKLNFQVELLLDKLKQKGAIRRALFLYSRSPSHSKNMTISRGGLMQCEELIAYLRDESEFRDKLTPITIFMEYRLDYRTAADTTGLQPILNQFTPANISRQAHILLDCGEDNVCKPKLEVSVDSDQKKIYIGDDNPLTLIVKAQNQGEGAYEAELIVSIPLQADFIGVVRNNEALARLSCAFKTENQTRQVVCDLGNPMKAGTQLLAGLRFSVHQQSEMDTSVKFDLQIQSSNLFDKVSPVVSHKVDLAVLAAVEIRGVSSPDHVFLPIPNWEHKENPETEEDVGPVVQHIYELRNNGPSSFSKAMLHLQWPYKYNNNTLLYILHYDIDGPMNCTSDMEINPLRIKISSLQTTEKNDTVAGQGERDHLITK
- Sequence (P06756 891-1048 limits assumed): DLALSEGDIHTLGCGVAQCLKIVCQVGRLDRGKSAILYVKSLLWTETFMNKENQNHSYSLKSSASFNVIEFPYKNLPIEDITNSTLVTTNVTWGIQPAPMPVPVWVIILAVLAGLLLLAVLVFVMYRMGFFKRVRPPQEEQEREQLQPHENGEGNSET
- protocol: Inhibitory concentration against alphaV-beta3 integrin
- Format: protein-complex assay
property: IC50 (nM)

> print(dat)
                                    compound  property  relational.operator  measured.result
 1    CNc1cccc(CCOc2ccc3c(ccn3CCC(=O)O)c2)n1      IC50                    =               36
 2  O=C(O)c1ccc(-n2ccc3cc(OCCCNc4ccccn4)ccc32)cc1      IC50                    >            20000
 3  O=C(O)CC(c1ccncc1)n1ccc2cc(OCCc3ccc4c(n3)NCCC4)ccc21 (stereo not given)      IC50                    =              0.9
 4  COc1cncc(C(CC(=O)O)n2ccc3cc(OCCc4ccc5c(n4)NCCC5)ccc32)c1 (stereo not given)      IC50                    =             0.25
 5  O=C(O)CC(c1ccc2ccccc2c1)n1ccc2cc(OCCc3ccc4c(n3)NCCC4)ccc21 (stereo not given)      IC50                    =               37
 6  O=C(O)CC(c1ccccc1)n1ccc2cc(OCCONC3=NCCN3)ccc21 (stereo not given)      IC50                    =              200
 7  O=C(O)CC(c1ccc(-c2ccccc2)cc1)n1ccc2cc(OCCc3ccc4c(n3)NCCC4)ccc21 (stereo not given)      IC50                    =               40
 8  COc1cccc(C(CC(=O)O)n2ccc3cc(OCCc4ccc5c(n4)NCCC5)ccc32)c1 (stereo not given)      IC50                    =              0.8
 9  CCCC(CC(=O)O)n1ccc2cc(CCCc3ccc4c(n3)NCCC4)ccc21 (stereo not given)      IC50                    =               23
10  O=C(O)CC(c1ccc2c(c1)OCO2)n1ccc2cc(OCCc3ccc4c(n3)NCCC4)ccc21 (stereo not given)      IC50                    =             0.38

Values were extracted from ChEMBL document CHEMBL1141928.
